# System: MALME-3M melanoma
# Run Description: NCI tumour cell line growth inhibition, 48 h; in the data active = GI50 below about 0.43 µM; inactive = the rest
Please answer using one outcome listed in active, inactive

// param item: O=Nc1c(-c2c(O)[nH]c3ncccc23)[nH]c2ccccc12 ; yields the recorded call
inactive

Do the same for COc1ccc2c(-c3ccnc(Nc4cccc(OC(F)(F)F)c4)n3)cnn2n1 please
inactive

Do the same for O=C(CN1N=C(c2ccc(F)cc2)CCC1=O)Nc1nc2ccccc2s1 please
inactive

Do the same for CCc1c(C)nc2sc3c(N)ncnc3c2c1C please
inactive

Do the same for COc1cc2ncc3c(nc4sccn43)c2cc1OC please
inactive

Do the same for O=C1C(OCCOc2ccccc2)=C(OCCOc2ccccc2)C(=O)c2ccccc21 please
inactive

Do the same for CC1C=CC(OC(=O)C(C)(O)CCC(O)(C(=O)OC2CC(O)C(C(C)C)CC2(C)O)C(C)C)(C(C)C)CC1 (configuration not stated) please
inactive

Do the same for COc1cc(C(=O)Nc2cc(O)c(CC=C(C)C)c(O)c2)cc2c1O[C@]1(C)CC[C@@H](O)C(C)(C)[C@H]1C2 please
inactive

Do the same for Nc1n[nH]c2ccc([C@@H]3Nc4cc5c(cc4[C@H]4C6CCC(C6)[C@@H]34)C(=O)NC5)cc12 (some centres not stated) please
inactive

Do the same for COc1cc(C(=O)c2cc(C)c3[nH]c4ccc(O)cc4c3c2C)cc(OC)c1OC please
active

Do the same for COc1ccc(Nc2ccnc(N3CCN(c4ccnc5cc(Cl)ccc45)CC3)n2)cc1 please
inactive

Do the same for N/C(=N\OC(=O)c1ccccc1)C(Cc1ccccc1)C(=O)NOC(=O)c1ccccc1 (configuration not stated) please
inactive

###

# Tested on: NCI-H226 lung
# Run Description: NCI tumour cell line growth inhibition, 48 h
Please respond with reported TGI for every item in the list.

These solved cases illustrate the format of a correct answer.
COc1ccc(Nc2ccnc(N3CCN(c4ccnc5cc(Cl)ccc45)CC3)n2)cc1	6.09 µM
C=CCc1cc(Nc2c3ccc(Cl)cc3nc3ccc(OC)cc23)cc(CN(CC)CC)c1O	10.8 µM
N#Cc1nc(C#N)n(S(=O)(=O)c2ccccc2)c1NS(=O)(=O)c1ccccc1	> 100 µM
COc1ccc2c3c1O[C@H](c1ccc(O)cc1)[C@H]3[N+](C)(C)CC2	> 100 µM
CN(CCCNC(=O)c1cc(-c2ccccc2)nc2ccccc12)CCCNC(=O)c1cc(-c2ccccc2)nc2ccccc12	10.7 µM

Here are 4 compounds. What values of TGI were reported for them?
1. CNNC(=NS(=O)(=O)c1cc(C#N)c(NNC)cc1S)NNC
2. CO/N=C1/c2sccc2[C@H](NC(=O)C(Cc2ccccc2)NC(=O)OC(C)(C)C)[C@@H]1O (stereo not given in full)
3. Oc1cc(-n2cccn2)c(O)cc1-n1cccn1
4. CCCc1[nH]c2ccccc2c1-c1c(CCC)[nH]c2ccccc12

["> 10 µM", "> 100 µM", "> 89 µM", "39.1 µM"]

What value of TGI has been reported for the following compound? c1cc(-c2cn3c(n2)SCC3)ccn1
> 100 µM

###

# System: 786-0 renal
# Run Description: NCI tumour cell line growth inhibition, 48 h; in the data active = GI50 below about 0.43 µM; inactive = the rest
Please answer using one outcome listed in active, inactive

Known results for compounds:
O=C(NNS(=O)(=O)c1ccc(Cl)cc1Cl)c1cccnc1Nc1ccc(Cl)cc1	inactive
COc1ccc2c(-c3ccnc(Nc4cccc(OC(F)(F)F)c4)n3)cnn2n1	inactive
O=C(CN1N=C(c2ccc(F)cc2)CCC1=O)Nc1nc2ccccc2s1	active

// param item: CCN1C(=O)N(CC)C2C1NN=c1s/c(=C\c3ccc(F)cc3)c(=O)n12 (stereo not given) ; yields the recorded call
inactive

Do the same for c1cc(N2CCN(c3ccc(C4=NCCCN4)cc3)CC2)ccc1C1=NCCCN1 please
inactive

Do the same for N#CCCNc1nonc1-c1nc2ccccc2n1CC(=O)c1ccc(NC(=O)[C@@H](N)CCCCN)cc1 please
active

Do the same for Cc1[nH]c(-c2cc(N)ccc2Cl)c2c1C(=O)CCCC2 please
inactive

Do the same for Nc1n[nH]c2ccc([C@@H]3Nc4cc5c(cc4[C@H]4C6CCC(C6)[C@@H]34)C(=O)NC5)cc12 (stereo not given in full) please
inactive

Do the same for C=CCc1cc(Nc2c3ccc(Cl)cc3nc3ccc(OC)cc23)cc(CN(CC)CC)c1O please
inactive

Do the same for C/C(=N\O)c1cccc(Nc2cc(-n3ccnc3)c3ccccc3n2)c1 please
inactive

###

Please respond with reported TGI for every item in the list.
# Test system: MDA-MB-231 breast
# Run Description: NCI tumour cell line growth inhibition, 48 h
Numbers only, in µM.

These solved cases illustrate the format of a correct answer.
COC(=O)c1cc(-c2ccc(OC)c(OC)c2)[nH]c1N/N=C/c1c(Cl)cccc1Cl	5.03
COc1cc(C(=O)Nc2cc(O)c(CC=C(C)C)c(O)c2)cc2c1O[C@]1(C)CC[C@@H](O)C(C)(C)[C@H]1C2	4.53

Continue with the compound presented below.
Form field: TGI recorded for COc1cc(-c2nn(-c3cccc(NC(=O)CCN4CCN(Cc5ccccc5)CC4)c3)cc2-c2ccncc2)ccc1Cl with MDA-MB-231 breast (enter value)
3.71

###

# System: SF-539 CNS
# Run Description: NCI tumour cell line growth inhibition, 48 h
Please respond with reported TGI for every item in the list.

COc1cccc(Oc2ccccc2NC(=O)CNC(=O)c2cccc3ccccc23)c1	1.07 µM

Here are 4 compounds. What values of TGI were reported for them?
1. CCOc1ccc(NC(=O)CCc2nnc(SC)o2)cc1
2. CC1=NN(c2ccccc2)C(=O)/C1=C\c1ccc([N+](=O)[O-])cc1
3. COc1ccc(Nc2ccnc(N3CCN(c4ccnc5cc(Cl)ccc45)CC3)n2)cc1
4. C=CCc1cc(Nc2c3ccc(Cl)cc3nc3ccc(OC)cc23)cc(CN(CC)CC)c1O

> 100 µM
45.2 µM
3.26 µM
9.16 µM

###

Please respond with reported TGI for every item in the list.
# Test system: LOX IMVI melanoma
# Run Description: NCI tumour cell line growth inhibition, 48 h

O=C1N[C@@H]2C(=C[C@H](O)[C@@H](O)[C@H]2O)c2cc3c(c(O)c21)OCO3	0.065 µM
C1CSCCSCCCSCCSCCCSCCSCCCSCCSC1	> 100 µM
Cc1ccc(NC(=O)C(=O)C(C(=O)/C=C/c2ccccc2)C2OC(=O)c3ccccc32)c(C)c1 (stereo unspecified)	> 100 µM
FC(F)(F)c1cccc(-c2nn3ncccc3c2-c2ccnc(Nc3ccc4c(c3)OCCO4)n2)c1	> 25 µM
O=C(O)c1cc(CCc2cc(O)ccc2O)ccc1O	> 100 µM
N#CCCNc1nonc1-c1nc2ccccc2n1CC(=O)c1ccc(NC(=O)[C@@H](N)CCCCN)cc1	> 100 µM

Here are 5 molecules. What values of TGI were reported for them?
1. Cc1ccccc1C(=O)C1CCCCC1O (stereo unspecified)
2. O=Cc1ccc2c(c1I)OCO2
3. O=C(O)c1ccccc1NC(=S)c1ccccc1
4. CCCCNc1nc(NC2OCC(OC(C)=O)C(OC(C)=O)C2OC(C)=O)c(N=O)c(=O)n1C (stereo unspecified)
5. C=C1CC[C@@H](C)[C@](C)(CCc2ccoc2)C/C=C\C=C/1C(=O)O

1. > 100 µM
2. > 100 µM
3. > 100 µM
4. > 10 µM
5. 57 µM

###

# Test system: HOP-92 NSCLC
# Run Description: NCI tumour cell line growth inhibition, 48 h
Please respond with reported TGI for every item in the list.

These solved cases illustrate the format of a correct answer.
CCCc1[nH]c2ccccc2c1-c1c(CCC)[nH]c2ccccc12	62.4 µM
c1cc(N2CCN(c3ccc(C4=NCCCN4)cc3)CC2)ccc1C1=NCCCN1	> 100 µM
COc1cc(Oc2nc3ccc(C(F)(F)F)cc3nc2-c2ccccc2)cc(OC)c1OC	45.7 µM

Here are 5 molecules. What values of TGI were reported for them?
1. COc1cc(-c2nn(-c3cccc(NC(=O)CCN4CCN(Cc5ccccc5)CC4)c3)cc2-c2ccncc2)ccc1Cl
2. Cc1cc(=O)c2c(O)cc3c(c2o1)CC=C(COC1OC(COC2OC(CO)C(O)C(O)C2O)C(O)C(O)C1O)CO3 (stereo unspecified)
3. C=CCOc1ccc(C2C(C(=O)OC)C(=O)CC(O)(c3ccccc3)C2C(=O)OC)cc1OC (stereo unspecified)
4. O=C1C=C(O)C(=Cc2c(O)cc(O)cc2O)C(O)=C1
5. COc1cccc(C(=O)C#Cc2cnc(OC)nc2OC)c1

4.44 µM
> 100 µM
38.5 µM
> 100 µM
4.28 µM

###

# System: HS 578T breast
# Run Description: NCI tumour cell line growth inhibition, 48 h
Please respond with reported TGI for every item in the list.

CC(=O)O[C@@H]1C[C@@]2(C)[C@@H]3CC=C4[C@@H](C[C@H](O)C(=O)C4(C)C)[C@]3(C)C(=O)C[C@]2(C)[C@H]1[C@@](C)(O)C(=O)/C=C/C(C)(C)OC(C)=O	> 100 µM

Here are 3 compounds. What values of TGI were reported for them?
1. CC(C)(C)NC(=O)CCC1C(C(=O)NC(C)(C)C)C2(Cl)C(Cl)=C(Cl)C1(Cl)C2(Cl)Cl (centres undefined)
2. NC(N)=NCCC(O)(P(=O)(O)O)P(=O)(O)O
3. C=CCC1(C)CCCN(Cc2ccccc2)C1=O (centres undefined)

1. > 100 µM
2. 57.4 µM
3. > 10 µM
